test system: Vero E6 cells; assay: Cytotoxicity, trypan blue exclusion; assay type: cell-based; conditions: highest concentration that does not cause death of Vero E6 cells
// classify(record): look up MTC (maximal tolerable concentration) in ranges low bin: < 1000 µM; mid bin: ≥ 1000 µM and < 2000 µM; high bin: ≥ 2000 µM

// below: answered molecules
COc1c(F)cc2c(ncn2[C@@H]2O[C@H](CO)C[C@H]2O)c1F	mid bin
Nc1nc2ccccc2[nH]1	low bin
Fc1cc2nc[nH]c2c(F)c1F	mid bin
COc1c(F)cc2nc[nH]c2c1F	mid bin
Fc1cc(F)c2[nH]cnc2c1	low bin
COc1cc2nc(N)[nH]c2cc1F	mid bin
OC[C@@H]1C[C@@H](O)[C@H](n2cnc3ccccc32)O1	high bin
NC(=O)c1ncn([C@@H]2O[C@H](CO)[C@@H](O)[C@H]2O)n1 [ribavirin, reference compound]	high bin

Turning now to a further record.
**Query** Form field 'band' for Nc1nc2cc(F)c(F)cc2[nH]1
**Result** low bin

====

system: Vero E6 cells; assay: Cytotoxicity, trypan blue exclusion; type: cell-based; conditions: highest concentration that does not cause death of Vero E6 cells
Provide the recorded MTC (maximal tolerable concentration) for the entries that follow.
One number for each entry, in µM.

Before answering, review these 3 worked examples.
c1ccc2[nH]cnc2c1	4235.49
Nc1nc2cc(F)c(F)cc2n1[C@@H]1O[C@H](CO)C[C@H]1O	1991.35
Fc1cc2nc[nH]c2cc1F	1623.06

# map each compound to its MTC (maximal tolerable concentration)
1. OC[C@@H]1C[C@@H](O)[C@H](n2cnc3c(F)cc(F)cc32)O1 [Compound 11a]
2. OC[C@@H]1C[C@@H](O)[C@H](n2cnc3c(F)c(F)c(F)cc32)O1 [Compound 12a]

**Result**
1003.68
1999.65

====

system: HSV-1/L2; test: CPE inhibition assay, HSV-1 reference strain L2 in Vero E6 cells; type: cell-based, herpes simplex virus 1; conditions: read-out: IC50 HSV-1/L2; CPE inhibition by 50%, Vero E6, MOI 0.01
Reported Metric: pIC50
Answers are plain numbers, as −log10 of the molar value.

Fc1cc2nc[nH]c2c(F)c1F	3.44

# map each compound to its pIC50
1. Nc1nc2ccccc2[nH]1
2. Fc1cc2nc[nH]c2cc1F
3. c1ccc2[nH]cnc2c1

**Result**
[3.33, 3.69, 2.98]

**Query** // Input: Nc1nc2cc(F)c(F)cc2[nH]1 . Output its pIC50 only.
**Result** 3.43

====

system: HSV-1/L2; experiment: CPE inhibition assay, HSV-1 reference strain L2 in Vero E6 cells; format: cell-based, herpes simplex virus 1; conditions: read-out: IC50 HSV-1/L2; CPE inhibition by 50%, Vero E6, MOI 0.01; listed as 4,6-Difluoro-1-(β-D-3′-deoxyribofuranosyl)benzimidazole
Reported Metric: pIC50
Give bare numbers, as −log10 of the molar value.

**Query** // Input: OC[C@@H]1C[C@@H](O)[C@H](n2cnc3c(F)cc(F)cc32)O1 [Compound 11a] . Output its pIC50 only.
**Result** 3.60

====

test system: HSV-1/L2; experiment: CPE inhibition assay, HSV-1 reference strain L2 in Vero E6 cells; assay type: cell-based, herpes simplex virus 1; conditions: read-out: IC50 HSV-1/L2; CPE inhibition by 50%, Vero E6, MOI 0.01
// returns not fulfilled unless IC50 is strictly below 600 µM, in which case fulfilled

OC[C@@H]1C[C@@H](O)[C@H](n2cnc3cc(F)c(F)cc32)O1 [Compound 10]	fulfilled
OC[C@@H]1C[C@@H](O)[C@H](n2cnc3ccccc32)O1 [Compound 9]	not fulfilled
Nc1nc2cc(F)c(F)cc2n1[C@@H]1O[C@H](CO)C[C@H]1O [Compound 16]	not fulfilled

**Query** Is it true that IC50 reported for COc1cc2nc(N)[nH]c2cc1F [Compound 7, 2-amino-5-fluoro-6-methoxybenzimidazole] is less than 600 µM?
**Result** fulfilled

**Query** Is it true that IC50 reported for Fc1cc(F)c2[nH]cnc2c1 [Compound 3, 4,6-Difluorobenzimidazole] is less than 600 µM?
**Result** not fulfilled

====

tested on: Vero E6 cells; test: Cytotoxicity, trypan blue exclusion; type: cell-based; conditions: 50% cytotoxic concentration, Vero E6 cells, 72 h
Reported Metric: CD50

# map each compound to its CD50
1. OC[C@@H]1C[C@@H](O)[C@H](n2cnc3c(F)cc(F)cc32)O1 [Compound 11a]
2. OC[C@@H]1C[C@@H](O)[C@H](n2cnc3c(F)c(F)c(F)cc32)O1 [Compound 12a]
3. OC[C@@H]1C[C@@H](O)[C@H](n2cnc3ccccc32)O1

**Result**
> 2007.37 µM
≥ 3999.31 µM
> 5019.25 µM
